- system-under-test: T1, β-catenin (UniProt P35222 134-665, limits assumed, biotinylated in the SPR and plate assays)
- T1 construct: also called beta catenin; biotinylated β-catenin
- T1 sequence (looked up): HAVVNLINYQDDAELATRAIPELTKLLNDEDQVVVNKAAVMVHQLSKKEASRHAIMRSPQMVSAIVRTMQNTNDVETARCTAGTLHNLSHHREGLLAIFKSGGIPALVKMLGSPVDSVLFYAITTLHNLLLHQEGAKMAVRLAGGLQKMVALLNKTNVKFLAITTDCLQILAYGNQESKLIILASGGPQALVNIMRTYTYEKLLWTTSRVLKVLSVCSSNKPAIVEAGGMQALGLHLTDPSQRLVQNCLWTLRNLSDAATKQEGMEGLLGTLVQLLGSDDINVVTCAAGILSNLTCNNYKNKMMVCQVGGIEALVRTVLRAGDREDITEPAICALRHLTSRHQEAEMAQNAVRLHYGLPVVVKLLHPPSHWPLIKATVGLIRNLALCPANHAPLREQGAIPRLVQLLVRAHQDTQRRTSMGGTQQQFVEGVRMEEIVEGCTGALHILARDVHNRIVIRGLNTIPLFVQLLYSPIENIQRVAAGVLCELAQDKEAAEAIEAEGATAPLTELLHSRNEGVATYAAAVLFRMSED
- test-protocol: competitive FP
Bridges are numbered along the chain shown (N, C = ends). [ ]: non-standard residue; d: D form. The star is where a group is joined. Chg = N[C@H](C(=O)O)C1CCCCC1; Lauroyl = CCCCCCCCCCCC(=O)*; NMeA = CN[C@@H](C)C(=O)O

[
  {
    "binder": "MSRMWFLISFWAG (HELM PEPTIDE1{M.S.R.M.W.F.L.I.S.F.W.[meA].G}$$$$V2.0; SMILES CC[C@H](C)[C@H](NC(=O)[C@H](CC(C)C)NC(=O)[C@H](Cc1ccccc1)NC(=O)[C@H](Cc1c[nH]c2ccccc12)NC(=O)[C@H](CCSC)NC(=O)[C@H](CCCNC(=N)N)NC(=O)[C@H](CO)NC(=O)[C@@H](N)CCSC)C(=O)N[C@@H](CO)C(=O)N[C@@H](Cc1ccccc1)C(=O)N[C@@H](Cc1c[nH]c2ccccc12)C(=O)N(C)[C@@H](C)C(=O)NCC(=O)O) [SEQ ID NO: 16]",
    "Kd": "> 30000 nM"
  },
  {
    "binder": "Lauroyl-W[NMeA]QKILNDH[Chg]QAVW-NH2 (lactam 4-8) [SEQ ID NO: 459]",
    "Kd": "≤ 400 nM"
  },
  {
    "binder": "H-MWFLICFWG-OH [SEQ ID NO: 42]",
    "Kd": "≤ 400 nM"
  }
]
